# Experimental System: Epidermal growth factor receptor (Homo sapiens) (UniProt P00533)
# Sequence (P00533 whole entry, looked up): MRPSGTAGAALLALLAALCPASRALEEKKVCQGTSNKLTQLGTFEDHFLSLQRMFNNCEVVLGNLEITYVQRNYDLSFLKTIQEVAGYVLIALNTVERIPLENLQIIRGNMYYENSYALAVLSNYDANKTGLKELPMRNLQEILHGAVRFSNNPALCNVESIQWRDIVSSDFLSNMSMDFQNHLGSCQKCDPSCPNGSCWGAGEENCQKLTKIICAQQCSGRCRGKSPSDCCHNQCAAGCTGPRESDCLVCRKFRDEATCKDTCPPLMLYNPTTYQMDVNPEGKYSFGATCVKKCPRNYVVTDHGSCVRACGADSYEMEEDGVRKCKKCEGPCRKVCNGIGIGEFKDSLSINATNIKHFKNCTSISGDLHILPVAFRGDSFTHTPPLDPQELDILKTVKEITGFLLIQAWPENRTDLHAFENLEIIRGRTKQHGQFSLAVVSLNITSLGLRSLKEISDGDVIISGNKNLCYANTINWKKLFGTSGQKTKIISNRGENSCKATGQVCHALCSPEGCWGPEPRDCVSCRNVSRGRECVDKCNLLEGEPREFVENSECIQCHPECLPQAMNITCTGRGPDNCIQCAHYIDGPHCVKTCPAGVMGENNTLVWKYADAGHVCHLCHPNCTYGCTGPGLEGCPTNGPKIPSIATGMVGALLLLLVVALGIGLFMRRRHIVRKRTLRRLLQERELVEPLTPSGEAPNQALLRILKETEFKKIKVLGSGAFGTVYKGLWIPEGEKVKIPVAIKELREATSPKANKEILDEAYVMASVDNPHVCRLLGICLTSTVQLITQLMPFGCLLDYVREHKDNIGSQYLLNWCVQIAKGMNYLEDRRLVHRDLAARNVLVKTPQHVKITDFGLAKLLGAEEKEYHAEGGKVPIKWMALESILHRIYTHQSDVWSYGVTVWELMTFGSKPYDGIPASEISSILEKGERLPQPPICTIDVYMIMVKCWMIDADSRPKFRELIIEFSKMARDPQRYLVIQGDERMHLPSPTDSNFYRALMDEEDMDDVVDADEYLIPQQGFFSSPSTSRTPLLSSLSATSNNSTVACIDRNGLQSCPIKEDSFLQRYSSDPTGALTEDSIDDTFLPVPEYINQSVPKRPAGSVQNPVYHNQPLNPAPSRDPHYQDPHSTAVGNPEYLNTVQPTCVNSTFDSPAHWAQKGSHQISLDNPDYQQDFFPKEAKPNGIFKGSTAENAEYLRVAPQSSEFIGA
# Assay Summary: compounds binding epidermal growth factor receptor – biochemical, small-molecule microarray, 635 nm fluorescence, primary screen (AID 1104);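 note: score merges 667 nm emission intensity with spot signal to noise over triplicate slides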
# Stated Conditions: EGFR binding, higher = more signal
Recorded Endpoint: composite z-score
I'd appreciate a reply containing only the number, no unit.

Example cases with answers are listed next.
[
  {
    "Compound": "COc1cc2c(cc1O)C(C1CC1)N(C)CC2 (centres undefined)",
    "Experimental System": "Epidermal growth factor receptor (Homo sapiens) (UniProt P00533)",
    "composite z-score": -1.17
  },
  {
    "Compound": "COC(=O)C1=CC(CCCO)=CC(c2cccs2)N(Cc2cccc(OC(F)(F)F)c2)C=C1C(=O)OC (centres undefined)",
    "Experimental System": "Epidermal growth factor receptor (Homo sapiens) (UniProt P00533)",
    "composite z-score": 0.179
  },
  {
    "Compound": "COC(=O)C(CC#Cc1ccc2c(c1)[C@]1(C(=O)N2)[C@H](c2ccc(O)cc2)N2[C@H](c3ccccc3)[C@H](c3ccccc3)OC(=O)[C@H]2[C@@H]1C(=O)NC[C@H](O)c1ccccc1)C(=O)OC",
    "Experimental System": "Epidermal growth factor receptor (Homo sapiens) (UniProt P00533)",
    "composite z-score": 0.588
  },
  {
    "Compound": "COc1cc(NN2C(C(O)c3ccco3)C=CC3C(=O)N(C)C(=O)C32)cc(OC)c1OC (centres undefined)",
    "Experimental System": "Epidermal growth factor receptor (Homo sapiens) (UniProt P00533)",
    "composite z-score": -0.169
  },
  {
    "Compound": "CC(C)[Si](C#CCCCC#N)(O[C@H](c1ccccc1)c1cn(Cc2ccccc2)nn1)C(C)C",
    "Experimental System": "Epidermal growth factor receptor (Homo sapiens) (UniProt P00533)",
    "composite z-score": 0.494
  },
  {
    "Compound": "CN(C)C(=O)[C@@]1(Cc2ccccc2)N=C(c2ccc(OCCCO)cc2)O[C@H]1c1ccccc1",
    "Experimental System": "Epidermal growth factor receptor (Homo sapiens) (UniProt P00533)",
    "composite z-score": -0.591
  },
  {
    "Compound": "CCOC(=O)C1=C[C@@H](C(C)(C)C)N(S(=O)(=O)c2ccc(C)cc2)[C@H]1c1cccc2ccccc12",
    "Experimental System": "Epidermal growth factor receptor (Homo sapiens) (UniProt P00533)",
    "composite z-score": -0.138
  },
  {
    "Compound": "O=C1C[C@]2(c3ccc([N+](=O)[O-])cc3)C(=O)N(C3CC3)c3cc(CO)ccc3[C@H]2N1CC12CC3CC(CC(C3)C1)C2",
    "Experimental System": "Epidermal growth factor receptor (Homo sapiens) (UniProt P00533)",
    "composite z-score": -0.951
  }
]

Proceed to the following item.
I am curious: what composite z-score value has been reported for COCCOC(=O)N1C(=O)[C@@]2(c3cc(C#CC4(O)CCCCCC4)ccc31)[C@H](c1ccc(O)cc1)N1[C@H](c3ccccc3)[C@H](c3ccccc3)OC(=O)[C@H]1[C@@H]2C(=O)N1CCN(c2ncccn2)CC1 ?
0.149

* * *

# Assay Summary: forskolin-driven CRE-LacZ activity in PC12 – cell-based, CRE-LacZ reporter, forskolin-stimulated, primary screen (AID 1146);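 note: PC12 cells with 6xCRE LacZ reporter stimulated by forskolin 10 µM; beta-galactosidase reporter signal reflecting CREB driven transcription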
# Stated Conditions: luminescence, 4.5 h, higher = more signal, called active from +8 up or from −8 down
Recorded Endpoint: z-score
I'd appreciate a reply containing only the number, no unit.

Example cases with answers are listed next.
[
  {
    "Compound": "COc1ccc([Si](C)(C)[C@@H]2[C@@H](CCO)O[C@]3(C(=O)N(Cc4cccc(NC(=O)[C@H](C)O)c4)c4ccccc43)[C@H]2C)cc1",
    "z-score": -1.88
  },
  {
    "Compound": "COC(=O)c1c(CC[C@@H](CO)NC(=O)N2CCC[C@H]2Cn2cc(C3(O)CCCCC3)nn2)oc(C(C)=O)c1C(=O)OC",
    "z-score": 0.306
  },
  {
    "Compound": "Cn1cccc1C(O)C1C=CC2C(=O)N(c3ccccc3)C(=O)C2N1Nc1ccccc1 (stereo not given)",
    "z-score": -0.0981
  },
  {
    "Compound": "CC(=O)NCCCC[C@@H]1NC(=O)[C@@H]2C[C@H](C(=O)NCCCCCN)[C@H](c3ccc(O)cc3)N2C1=O",
    "z-score": -0.389
  }
]

I am curious: what z-score value has been reported for CCOC(=O)C[C@H]1[C@H](OC(=O)Cc2ccc3c(c2)OCO3)[C@@H](NC(=O)c2ccc3ccccc3n2)c2cc(OCCCO)ccc2N1C(=O)c1ccc2ccccc2n1 ?
-1.03

I am curious: what z-score value has been reported for COc1cc2c(cc1O)C(C1CC1)N(Cc1cccc(OC(F)(F)F)c1)CC2 (stereo not given) ?
0.0388

I am curious: what z-score value has been reported for CCOC(=O)C=Cc1cccc(C)c1O ?
-0.631

I am curious: what z-score value has been reported for C=CC[C@@H](OC(=O)Nc1ccc(OC)cc1)c1ccc(O)c(F)c1 ?
10.1

I am curious: what z-score value has been reported for CC(CO)N1C(=O)[C@@H]2[C@H]3C(=O)OCC=C[C@H]3OC23C=CCN(Cn2nnc4ccccc42)C(=O)[C@@H]13 (stereo not given in full) ?
-0.391

I am curious: what z-score value has been reported for C=CCNC(=O)[C@H]1[C@@H]2C(=O)O[C@@H](c3ccccc3)[C@@H](c3ccccc3)N2[C@@H](c2ccccc2OCCO)[C@]12C(=O)N(C(=O)OCCOC)c1ccc(C#CC3(O)CCCCCC3)cc12 ?
0.347
